A collection of binders and their measured EC50
TEST_TARGET: T1, CD22 on the cell membrane of CD22-positive cell lines (Raji, REH, CA46) (UniProt P20273 20-847, limits assumed)
T1 construct: whole, on cells; Raji and CA46: relatively high expression of CD22; REH: relatively medium expression; also called CD22 on cell membrane
PROCEDURE_DETAILS: FACS on CA46 cells
ASSAY_METRIC: EC50 (µg/mL)

{"columns": ["BINDER", "ASSAY_METRIC", "UNIT_STRING", "RESULT_VALUE"],
 "data": [
  ["mAb-1 (antibody, human IgG1, kappa, V domains shown, Reconstructed IgG1/kappa antibody, humanized heavy chain with HA22 light chain; also called V2 HC + HA22 LC) VH: EVQLVESGGGLVKPGGSLRLSCAASGFAFSIYDMSWVRQTPEKCLEWVAYISSGGGTTYYPDSVKGRFTISRENAKNSLYLQMNSLKSEDTAMYYCARHSGYGTHWGVLFAYWGQGTMVTVSS VL: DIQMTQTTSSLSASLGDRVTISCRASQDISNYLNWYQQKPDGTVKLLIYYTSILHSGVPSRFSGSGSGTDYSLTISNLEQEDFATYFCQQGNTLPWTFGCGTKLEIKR", "EC50", "µg/mL", 0.521],
  ["mAb-3 (antibody, human IgG1, kappa, V domains shown, Humanized IgG1/kappa antibody; also called V1 HC + V2 LC) VH: EVQLVESGGGLVKPGGSLRLSCAASGFAFSIYDMSWVRQAPGKCLEWVAYISSGGGTTYYPDSVKGRFTISRENAKNSLYLQMNSLKSEDTAMYYCARHSGYGTHWGVLFAYWGQGTMVTVSS VL: DIQMTQSTSTLSASVGDRVTITCRASQDISNYLNWYQQRPDGSVKLLIYYTSILHSGVPSRFSGSGSGTDYTLTISSLQDEDFATYFCQQGNTLPWTFGCGTKVEIKR", "EC50", "µg/mL", 1.61]
]}
